experimental system: T1, human C-MET on stably transfected CHO-K1 cells (human, UniProt P08581 25-1390)
T1 construct: also called hucMET; human C-MET+ CHO-K1 cells
T1 sequence (P08581 25-1390 limits assumed): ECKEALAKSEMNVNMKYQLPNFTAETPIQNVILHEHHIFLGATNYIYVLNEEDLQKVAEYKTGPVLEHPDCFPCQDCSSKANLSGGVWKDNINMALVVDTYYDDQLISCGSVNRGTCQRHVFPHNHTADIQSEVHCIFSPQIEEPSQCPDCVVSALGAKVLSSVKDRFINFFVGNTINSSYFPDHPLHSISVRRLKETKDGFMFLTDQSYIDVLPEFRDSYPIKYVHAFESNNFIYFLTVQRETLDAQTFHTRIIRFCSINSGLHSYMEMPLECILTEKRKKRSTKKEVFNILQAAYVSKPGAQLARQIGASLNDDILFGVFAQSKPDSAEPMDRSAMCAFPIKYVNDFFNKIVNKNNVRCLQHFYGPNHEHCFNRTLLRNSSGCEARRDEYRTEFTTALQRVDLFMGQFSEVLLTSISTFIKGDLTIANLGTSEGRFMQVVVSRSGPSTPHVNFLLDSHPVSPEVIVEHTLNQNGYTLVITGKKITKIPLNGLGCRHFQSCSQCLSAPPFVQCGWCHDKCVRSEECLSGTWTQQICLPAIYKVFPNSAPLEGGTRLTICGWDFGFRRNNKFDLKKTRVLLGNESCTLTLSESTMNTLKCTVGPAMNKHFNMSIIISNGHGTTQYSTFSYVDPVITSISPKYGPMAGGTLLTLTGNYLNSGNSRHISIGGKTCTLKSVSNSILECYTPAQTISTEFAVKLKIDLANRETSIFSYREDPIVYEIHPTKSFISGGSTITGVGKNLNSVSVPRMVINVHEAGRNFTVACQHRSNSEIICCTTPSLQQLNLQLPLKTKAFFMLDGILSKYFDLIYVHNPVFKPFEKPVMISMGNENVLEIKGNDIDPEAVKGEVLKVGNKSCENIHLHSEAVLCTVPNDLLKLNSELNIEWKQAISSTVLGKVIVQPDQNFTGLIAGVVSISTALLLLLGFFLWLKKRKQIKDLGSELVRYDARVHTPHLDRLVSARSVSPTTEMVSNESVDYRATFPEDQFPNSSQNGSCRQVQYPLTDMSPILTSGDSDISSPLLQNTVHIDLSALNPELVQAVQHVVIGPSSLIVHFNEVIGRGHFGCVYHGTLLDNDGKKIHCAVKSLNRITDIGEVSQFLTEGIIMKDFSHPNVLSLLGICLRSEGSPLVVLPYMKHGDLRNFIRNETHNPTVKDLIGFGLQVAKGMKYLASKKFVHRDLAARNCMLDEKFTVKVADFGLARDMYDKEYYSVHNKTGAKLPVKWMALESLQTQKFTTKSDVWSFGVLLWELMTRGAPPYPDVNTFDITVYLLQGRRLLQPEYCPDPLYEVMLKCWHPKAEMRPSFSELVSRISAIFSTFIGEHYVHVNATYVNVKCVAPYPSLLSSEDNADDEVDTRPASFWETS
experiment notes: flow cytometry, C-MET CHO-K1 cells
readout label: EC50 (nM)
Give bare numbers, in nM.

| binder | value units | EC50 |
| --- | --- | --- |
| MH7 (antibody, human IgG4, V domains shown) VH: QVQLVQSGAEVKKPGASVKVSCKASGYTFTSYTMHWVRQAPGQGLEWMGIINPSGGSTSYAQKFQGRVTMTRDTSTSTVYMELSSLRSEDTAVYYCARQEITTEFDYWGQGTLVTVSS VL: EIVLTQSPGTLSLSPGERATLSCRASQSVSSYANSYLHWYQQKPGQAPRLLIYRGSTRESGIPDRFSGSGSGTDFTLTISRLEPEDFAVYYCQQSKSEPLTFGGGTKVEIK | nM | 1.14 |
| 09E04 (antibody, IgG4, V domains shown) VH: QVQLVQSGAEVKKPGASVKVSCKASGYIFTSYTMHWVRQAPGQGLEWMGWINPNGGSTSYAQKFQGRVTMTRDTSTSTVYMELSSLRSEDTAVYYCARQEITTEFDYWGQGTLVTVSS VL: EIVLTQSPGTLSLSPGERATLSCRASQSVESYANSYLHWYQQKPGQAPRLLIYRGSTRESGIPDRFSGSGSGTDFTLTISRLEPEDFAVYYCQQYGSEPLTFGGGTKVEIK | nM | 2.9 |

Note: attention shifts to another entry.
Exercise: Query (binder): 04E10 (antibody, IgG4, V domains shown) VH: QVQLVQSGAEVKKPGASVKVSCKASGYIFTSYTMHWVRQAPGQGLEWMGWIKPNNGSASYAQKFQGRVTMTRDTSTSTVYMELSSLRSEDTAVYYCARSEITTEEDYWGQGTLVTVSS VL: EIVLTQSPGTLSLSPGERATLSCRASQSVDSYANSYLHWYQQKPGQAPRLLIYRGSTRESGIPDRFSGSGSGTDFTLTISRLEPEDFAVYYCQQSKSEPLTFGGGTKVEIK ; field requested: EC50
Key: 9.66
